Target: PKC-ζ, purified isoform (UniProt Q05513)
Sequence (Q05513 whole entry, canonical isoform): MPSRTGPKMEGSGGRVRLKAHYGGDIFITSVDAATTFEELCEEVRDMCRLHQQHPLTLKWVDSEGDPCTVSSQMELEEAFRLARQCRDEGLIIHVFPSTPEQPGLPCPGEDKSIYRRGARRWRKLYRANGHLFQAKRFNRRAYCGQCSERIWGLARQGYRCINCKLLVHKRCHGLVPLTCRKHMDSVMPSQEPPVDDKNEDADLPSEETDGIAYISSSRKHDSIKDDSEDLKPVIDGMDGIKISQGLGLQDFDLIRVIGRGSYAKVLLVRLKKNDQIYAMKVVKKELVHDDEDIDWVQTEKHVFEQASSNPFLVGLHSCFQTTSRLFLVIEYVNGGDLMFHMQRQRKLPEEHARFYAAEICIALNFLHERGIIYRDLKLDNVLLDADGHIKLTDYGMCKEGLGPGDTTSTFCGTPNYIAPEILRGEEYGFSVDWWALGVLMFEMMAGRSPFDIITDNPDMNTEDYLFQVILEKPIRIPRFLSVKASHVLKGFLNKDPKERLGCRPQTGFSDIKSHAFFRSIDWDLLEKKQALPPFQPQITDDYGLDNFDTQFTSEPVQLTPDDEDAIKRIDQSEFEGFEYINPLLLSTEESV
Experiment: competition ELISA on coated purified PKC-ζ vs anti-PKC ζ antibody; PRE 100 µM
resultType: relative binding capacity (%)

Some binders with recorded relative binding capacity:
Ac-RDAQNLIGISI-NH2 [PRE 11]; 0
Ac-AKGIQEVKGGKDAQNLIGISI-NH2 [PRE 5]; 0

(a) Ac-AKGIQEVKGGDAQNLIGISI-NH2 [PRE 3]
(b) Ac-KDAQNLIGISI-NH2 [PRE 4]
Smaller relative binding capacity value? Options are a and b Answer by quoting the chosen item's label.
b
(b: 0%, a: 23.9%)
